Readings of inhibition at 1 µM for the listed molecules
# target.system: 5-HT6 receptor (Homo sapiens, UniProt P50406)
# Construct: purchased PerkinElmer
# Sequence (P50406 whole entry): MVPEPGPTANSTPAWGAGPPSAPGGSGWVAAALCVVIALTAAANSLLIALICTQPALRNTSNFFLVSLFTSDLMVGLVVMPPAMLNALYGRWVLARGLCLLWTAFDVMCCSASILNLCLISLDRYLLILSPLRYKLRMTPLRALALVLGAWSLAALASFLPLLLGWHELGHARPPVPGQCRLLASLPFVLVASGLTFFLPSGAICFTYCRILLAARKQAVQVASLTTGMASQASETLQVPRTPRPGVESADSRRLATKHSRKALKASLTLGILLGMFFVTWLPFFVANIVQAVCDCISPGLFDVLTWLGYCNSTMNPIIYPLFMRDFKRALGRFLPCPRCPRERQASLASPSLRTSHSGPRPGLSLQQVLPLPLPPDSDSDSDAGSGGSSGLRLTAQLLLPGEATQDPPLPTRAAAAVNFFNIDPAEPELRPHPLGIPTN
# assay: Radioligand binding assay, serotoninergic 5-HT6 receptors;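 note: test compound at 1 µM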
# stated.conditions: binding assay result in %, Table 5a
Kindly answer with a numeric value in %, unit omitted.

# annotated cases, reported inhibition at 1 µM shown
{"molecule": "O=S(=O)(NC1CCN(CCCc2noc3cc(F)ccc23)C1)c1cc2ccccc2s1 (centres unmarked) [Compound 25]", "measured.attribute": "inhibition at 1 µM", "recorded.result": 95}
{"molecule": "O=S(=O)(NCC1CN(CCOc2cccc3c2OCCO3)C1)c1ccc(Br)cc1 [Compound 185]", "measured.attribute": "inhibition at 1 µM", "recorded.result": 23}
{"molecule": "Cc1c(S(=O)(=O)NCC2CN(CCOc3cccc4ccccc34)C2)sc2ccc(F)cc12 [Compound 166]", "measured.attribute": "inhibition at 1 µM", "recorded.result": 98}
{"molecule": "O=S(=O)(NCC1CN(CCOc2cccc3c2OCCO3)C1)c1cc2ccccc2o1 [Compound 186]", "measured.attribute": "inhibition at 1 µM", "recorded.result": 32}
{"molecule": "Cc1c(S(=O)(=O)N[C@H]2CCN(CCCc3noc4cc(F)ccc34)C2)sc2ccc(Cl)cc12 [Compound 205]", "measured.attribute": "inhibition at 1 µM", "recorded.result": 94}
{"molecule": "Cc1ccc2sc(S(=O)(=O)N[C@@H]3CCN(CCCc4noc5cc(F)ccc45)C3)cc2c1 [Compound 228]", "measured.attribute": "inhibition at 1 µM", "recorded.result": 100}
{"molecule": "O=S(=O)(NCC1CCN(CCOc2cccc3ccccc23)C1)c1cccc(O)c1 (centres unmarked) [Compound 123]", "measured.attribute": "inhibition at 1 µM", "recorded.result": 72}

Next molecule, please.
Query: inhibition at 1 µM; subject: O=S(=O)(NCC1CCN(CCCc2noc3cc(F)ccc23)C1)c1cccc(O)c1 (centres unmarked) [Compound 254] 78

---

# target.system: 5-HT1A receptor (rat hippocampus) (Rattus norvegicus)
# Construct: hippocampus; from tissue; host or cells: rat hippocampus
# assay: Radioligand binding assay, serotoninergic 5-HT1A receptors;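 note: test compound at 1 µM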
# stated.conditions: binding assay result in %, Table 5a
Readings of inhibition at 1 µM for the listed compounds
Kindly answer with a numeric value in %, unit omitted.

# annotated cases, reported inhibition at 1 µM shown
{"compound": "O=S(=O)(NCC1CCN(CCCc2noc3cc(F)ccc23)C1)c1ccc(Cl)c(Cl)c1 (centres unmarked)", "inhibition at 1 µM (%)": 34}
{"compound": "Cn1ccc2cc(S(=O)(=O)NCC3CCN(CCOc4cccc5ccccc45)C3)ccc21 (centres unmarked)", "inhibition at 1 µM (%)": 77}
{"compound": "O=S(=O)(NC1CCN(CCCc2noc3cc(F)ccc23)C1)c1ccc(-c2ccccc2)cc1 (centres unmarked)", "inhibition at 1 µM (%)": 47}
{"compound": "Cc1cc(S(=O)(=O)NC2CCN(CCCc3noc4cc(F)ccc34)C2)c(C)s1 (centres unmarked)", "inhibition at 1 µM (%)": 67}
{"compound": "O=S(=O)(NC1CCN(CCCc2noc3cc(F)ccc23)C1)c1ccc2c(c1)OCC2 (centres unmarked)", "inhibition at 1 µM (%)": 19}
{"compound": "O=S(=O)(NCC1CCN(CCOc2cccc3c2OCCO3)C1)c1ccc(F)cc1 (centres unmarked)", "inhibition at 1 µM (%)": 99}
{"compound": "O=S(=O)(N[C@H]1CCN(CCCc2noc3cc(F)ccc23)C1)c1cc2ccccc2s1", "inhibition at 1 µM (%)": 56}

Next compound, please.
Query: inhibition at 1 µM; subject: "O=S(=O)(N[C@H]1CCN(CCCc2noc3cc(F)ccc23)C1)c1cc2ccccc2o1" 52

---

# target.system: α2C adrenergic receptors (Homo sapiens, UniProt P18825)
# Construct: expressed in transfected cells; host or cells: CHO cells
# Sequence (P18825 whole entry): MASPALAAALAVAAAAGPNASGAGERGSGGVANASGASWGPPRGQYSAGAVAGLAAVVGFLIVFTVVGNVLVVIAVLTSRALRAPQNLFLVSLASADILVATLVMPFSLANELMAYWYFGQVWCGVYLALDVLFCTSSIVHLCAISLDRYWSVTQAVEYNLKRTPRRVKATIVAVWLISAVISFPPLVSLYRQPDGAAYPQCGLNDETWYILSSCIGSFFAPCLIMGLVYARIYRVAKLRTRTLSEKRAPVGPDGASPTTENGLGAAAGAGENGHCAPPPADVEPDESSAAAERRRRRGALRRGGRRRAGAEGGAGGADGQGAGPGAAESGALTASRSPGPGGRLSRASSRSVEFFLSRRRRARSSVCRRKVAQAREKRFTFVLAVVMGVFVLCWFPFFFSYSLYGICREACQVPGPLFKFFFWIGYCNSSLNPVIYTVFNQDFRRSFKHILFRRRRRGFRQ
# assay: Radioligand binding assay, adrenergic α2C receptors
# stated.conditions: test compound 1×10^−6 M
measured.attribute: inhibition at 1 µM (%)
Kindly answer with a numeric value in %, unit omitted.

# annotated cases, reported inhibition at 1 µM shown
{"compound": "O=S(=O)(N[C@@H]1CCN(CCCc2noc3cc(F)ccc23)C1)c1cc2ccccc2s1", "scale.unit": "%", "inhibition at 1 µM": 89}
{"compound": "O=S(=O)(NCC1CCN(CCCc2noc3cc(F)ccc23)C1)c1ccc(-c2ccccc2)cc1 (centres unmarked)", "scale.unit": "%", "inhibition at 1 µM": 87}
{"compound": "O=S(=O)(NC1CCN(CCCc2noc3cc(F)ccc23)C1)c1csc2ccccc12 (centres unmarked)", "scale.unit": "%", "inhibition at 1 µM": 76}
{"compound": "Cc1c(S(=O)(=O)NCC2CN(CCCc3noc4cc(F)ccc34)C2)sc2ccc(F)cc12", "scale.unit": "%", "inhibition at 1 µM": 88}
{"compound": "O=S(=O)(NCC1CN(CCCc2noc3cc(F)ccc23)C1)c1ccc2ccccc2c1", "scale.unit": "%", "inhibition at 1 µM": 87}
{"compound": "Cc1cccc(S(=O)(=O)NC2CCN(CCCc3c[nH]c4ccc(F)cc34)C2)c1 (centres unmarked)", "scale.unit": "%", "inhibition at 1 µM": 85}
{"compound": "O=S(=O)(NC1CCN(CCCc2c[nH]c3ccc(F)cc23)C1)c1ccc(F)cc1 (centres unmarked)", "scale.unit": "%", "inhibition at 1 µM": 76}

Query: inhibition at 1 µM; subject: CC1(C)Cc2cccc(OCCN3CCC(NS(=O)(=O)c4cccc(O)c4)C3)c2O1 (centres unmarked) 77

---

Readings of 5-HT2C ag [%] for the listed compounds
# target.system: 5-HT2C serotoninergic receptors (Homo sapiens, UniProt P28335)
# Sequence (P28335 33-458): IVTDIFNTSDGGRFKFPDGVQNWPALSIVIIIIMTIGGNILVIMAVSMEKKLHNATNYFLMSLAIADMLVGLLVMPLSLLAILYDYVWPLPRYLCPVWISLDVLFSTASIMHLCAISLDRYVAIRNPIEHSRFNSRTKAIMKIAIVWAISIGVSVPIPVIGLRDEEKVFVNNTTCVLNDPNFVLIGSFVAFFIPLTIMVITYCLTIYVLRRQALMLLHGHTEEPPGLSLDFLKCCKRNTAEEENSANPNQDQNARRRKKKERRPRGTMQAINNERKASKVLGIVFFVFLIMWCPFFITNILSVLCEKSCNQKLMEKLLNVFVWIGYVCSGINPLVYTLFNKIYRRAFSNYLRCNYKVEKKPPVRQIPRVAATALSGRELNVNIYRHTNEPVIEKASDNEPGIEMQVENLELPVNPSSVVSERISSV
# assay: Cellular functional assay, 5-HT2C serotoninergic receptors
# Type: cell-based
# stated.conditions: agonist mode; percent of control specific agonist response
Kindly answer with a numeric value in %, unit omitted.

{"smiles.record": "Cc1c(S(=O)(=O)N[C@H]2CCN(CCCc3noc4cc(F)ccc34)C2)sc2ccc(F)cc12", "recorded.result": 1}
{"smiles.record": "Cc1ccc2sc(S(=O)(=O)N[C@@H]3CCN(CCCc4noc5cc(F)ccc45)C3)cc2c1", "recorded.result": 0}

Next compound, please.
Query: 5-HT2C ag [%]; subject: "O=S(=O)(NCC1CN(CCOc2cccc3c2OCCO3)C1)c1ccc(Cl)c(Cl)c1" 50

---

# target.system: 5-HT1A receptor (rat hippocampus) (Rattus norvegicus, UniProt P19327)
# Construct: hippocampus; from tissue; host or cells: rat hippocampus
# Sequence (P19327 whole entry): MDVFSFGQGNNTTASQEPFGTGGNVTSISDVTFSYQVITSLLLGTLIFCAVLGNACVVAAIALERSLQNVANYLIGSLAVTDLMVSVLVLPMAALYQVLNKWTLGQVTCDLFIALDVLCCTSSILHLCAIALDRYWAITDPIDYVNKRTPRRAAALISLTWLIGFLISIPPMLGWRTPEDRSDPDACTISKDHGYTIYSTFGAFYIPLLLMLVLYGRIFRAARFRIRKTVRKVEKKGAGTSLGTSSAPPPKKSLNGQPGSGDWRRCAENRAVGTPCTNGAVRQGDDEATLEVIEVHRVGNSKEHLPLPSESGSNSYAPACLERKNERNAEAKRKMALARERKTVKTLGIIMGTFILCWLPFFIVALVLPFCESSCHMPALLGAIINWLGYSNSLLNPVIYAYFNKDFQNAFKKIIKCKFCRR
# assay: Radioligand binding assay, serotoninergic 5-HT1A receptors;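 note: test compound at 1 µM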
# stated.conditions: binding assay result in %, Table 5a
measured.attribute: inhibition at 1 µM (%)
Kindly answer with a numeric value in %, unit omitted.

{"molecule": "O=S(=O)(NCC1CN(CCOc2cccc3c2OCCO3)C1)c1cccc2ccccc12", "target.system": "5-HT1A receptor (rat hippocampus) (Rattus norvegicus, UniProt P19327)", "inhibition at 1 µM, %": 98}
{"molecule": "O=S(=O)(NCC1CN(CCCc2noc3cc(F)ccc23)C1)c1cccc(Cl)c1", "target.system": "5-HT1A receptor (rat hippocampus) (Rattus norvegicus, UniProt P19327)", "inhibition at 1 µM, %": 14}
{"molecule": "O=S(=O)(NCC1CN(CCOc2cccc3c2OCCO3)C1)c1ccc(Cl)cc1", "target.system": "5-HT1A receptor (rat hippocampus) (Rattus norvegicus, UniProt P19327)", "inhibition at 1 µM, %": 92}
{"molecule": "O=S(=O)(NCC1CCN(CCCc2noc3cc(F)ccc23)C1)c1ccc2cc(Cl)ccc2c1 (centres unmarked)", "target.system": "5-HT1A receptor (rat hippocampus) (Rattus norvegicus, UniProt P19327)", "inhibition at 1 µM, %": 45}
{"molecule": "O=S(=O)(NCC1CCN(CCOc2cccc3c2OCCO3)C1)c1ccc2c(c1)CCO2 (centres unmarked)", "target.system": "5-HT1A receptor (rat hippocampus) (Rattus norvegicus, UniProt P19327)", "inhibition at 1 µM, %": 99}

Query: inhibition at 1 µM; subject: O=S(=O)(NC1CCN(CCCc2c[nH]c3ccc(Cl)cc23)C1)c1cccc(Cl)c1 (centres unmarked) 99

Query: inhibition at 1 µM; subject: O=S(=O)(NCC1CCN(CCCc2noc3cc(F)ccc23)C1)c1ccc(F)cc1 (centres unmarked) 44

Query: inhibition at 1 µM; subject: "O=S(=O)(NCC1CN(CCCc2noc3cc(F)ccc23)C1)c1ccc(Cl)s1" 42

---

# target.system: 5-HT6 receptor (Homo sapiens, UniProt P50406)
# Construct: purchased PerkinElmer
# assay: Radioligand binding assay, serotoninergic 5-HT6 receptors;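 note: test compound at 1 µM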
# stated.conditions: binding assay result in %, Table 5a
Readings of inhibition at 1 µM for the listed compounds
Kindly answer with a numeric value in %, unit omitted.

Query: inhibition at 1 µM; subject: "O=S(=O)(NCC1CN(CCOc2cccc3c2OCCO3)C1)c1ccc(Cl)cc1" -15

Query: inhibition at 1 µM; subject: O=S(=O)(NCC1CCN(CCCc2noc3cc(F)ccc23)C1)c1ccc(-c2ccccc2)cc1 (centres unmarked) 68

Query: inhibition at 1 µM; subject: "O=S(=O)(NCC1CN(CCOc2cccc3c2OCCO3)C1)c1ccc(I)cc1" 9

Query: inhibition at 1 µM; subject: O=S(=O)(NC1CCN(CCCc2noc3cc(F)ccc23)C1)c1ccc2c(c1)OCO2 (centres unmarked) 53
